RUN_DESCRIPTION: Maximum tolerated dose, full dose range to the point of toxicity
COND: NMRI, mouse, in vivo, ip
MEASURE: MTD (mg/kg)
Kindly answer with a numeric value in mg/kg, unit omitted.

Which MTD value is on record for O=NN(CCCl)C(=O)N[C@H]1C(O)O[C@H](CO)[C@@H](O)[C@@H]1O (stereo partly shown) [Chlorozotocin, reference compound] ?
60
